ASSAY_SYSTEM: MAGE-A11:PCF11 (Homo sapiens (Human), UniProt P43364)
Sequence (P43364 218-429): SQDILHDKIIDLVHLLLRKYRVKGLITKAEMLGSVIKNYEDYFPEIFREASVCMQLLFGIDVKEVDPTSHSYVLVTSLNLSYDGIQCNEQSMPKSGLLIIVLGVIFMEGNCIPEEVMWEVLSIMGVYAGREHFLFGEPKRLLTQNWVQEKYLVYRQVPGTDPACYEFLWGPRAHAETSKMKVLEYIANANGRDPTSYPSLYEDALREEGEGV
TEST_DETAILS: TR-FRET single point screening at 15 μM
Format: binding
Set-up: unit not given here
SETUP_CONDITIONS: single point TR-FRET screening at 15 μM against MAGE-A11:PCF11
The entries below are paired with their reported TR-FRET signal.
Respond numerically, and do not add a unit to the figure.

COc1ccc2nc3cc(Cl)ccc3c(NCCCNCc3cc4ccccc4s3)c2c1 : −220.4

Ask: Query TR-FRET signal on MAGE-A11:PCF11 (Homo sapiens (Human), UniProt P43364) for `CCOC(=O)c1cnc2c(ccc3ccccc32)c1NCCN(C)C`
Result: 6.418

Ask: Query TR-FRET signal on MAGE-A11:PCF11 (Homo sapiens (Human), UniProt P43364) for `CCN1CCN(c2c(S(=O)(=O)c3ccccc3)cnc3ccc(Cl)cc23)CC1`
Result: 4.43

Ask: Query TR-FRET signal on MAGE-A11:PCF11 (Homo sapiens (Human), UniProt P43364) for `O=S(=O)(c1ccccc1)c1cnc2ccc(F)cc2c1N1CCN(c2ccc(F)cc2)CC1`
Result: −11.08

Ask: Query TR-FRET signal on MAGE-A11:PCF11 (Homo sapiens (Human), UniProt P43364) for `CCc1ccc(S(=O)(=O)c2cnc3ccccc3c2N2CCN(C)CC2)cc1`
Result: 11.58

Ask: Query TR-FRET signal on MAGE-A11:PCF11 (Homo sapiens (Human), UniProt P43364) for `Cc1cc(NC(=O)CN[C@H]2CCN(Cc3ccccc3)C2)c2ccccc2n1`
Result: 4.364

Ask: Query TR-FRET signal on MAGE-A11:PCF11 (Homo sapiens (Human), UniProt P43364) for `COc1ccccc1N1CCN(c2c(S(=O)(=O)c3ccc(Cl)cc3)cnc3ccc(C)cc23)CC1`
Result: −15.37

Ask: Query TR-FRET signal on MAGE-A11:PCF11 (Homo sapiens (Human), UniProt P43364) for `CCN1CCN(c2c(C(=O)c3ccc(C)cc3)cnc3ccc(OC)cc23)CC1`
Result: 3.9
